target system: CDK7/CyclinH/Mat1 (Homo sapiens)
Sequence (P50613 whole entry, species assumed): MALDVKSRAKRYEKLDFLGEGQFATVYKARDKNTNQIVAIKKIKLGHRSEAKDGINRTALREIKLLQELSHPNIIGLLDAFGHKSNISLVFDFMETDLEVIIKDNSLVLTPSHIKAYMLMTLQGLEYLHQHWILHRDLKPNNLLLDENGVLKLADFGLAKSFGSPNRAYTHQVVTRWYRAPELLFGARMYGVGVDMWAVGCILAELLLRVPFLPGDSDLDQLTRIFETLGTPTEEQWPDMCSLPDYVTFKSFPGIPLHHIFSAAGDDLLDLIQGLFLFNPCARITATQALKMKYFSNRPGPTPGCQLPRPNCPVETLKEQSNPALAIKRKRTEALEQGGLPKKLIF
Sequence (P51946 whole entry partner, species assumed): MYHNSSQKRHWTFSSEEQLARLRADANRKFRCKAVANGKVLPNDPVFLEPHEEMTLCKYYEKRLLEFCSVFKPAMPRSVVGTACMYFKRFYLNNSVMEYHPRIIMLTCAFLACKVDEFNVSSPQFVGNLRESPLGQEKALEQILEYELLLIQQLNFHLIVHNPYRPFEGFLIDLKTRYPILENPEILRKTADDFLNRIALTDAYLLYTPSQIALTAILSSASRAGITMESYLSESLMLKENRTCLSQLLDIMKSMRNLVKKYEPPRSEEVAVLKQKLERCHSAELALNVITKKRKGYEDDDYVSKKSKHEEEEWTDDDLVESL
Sequence (P51948 whole entry partner, species assumed): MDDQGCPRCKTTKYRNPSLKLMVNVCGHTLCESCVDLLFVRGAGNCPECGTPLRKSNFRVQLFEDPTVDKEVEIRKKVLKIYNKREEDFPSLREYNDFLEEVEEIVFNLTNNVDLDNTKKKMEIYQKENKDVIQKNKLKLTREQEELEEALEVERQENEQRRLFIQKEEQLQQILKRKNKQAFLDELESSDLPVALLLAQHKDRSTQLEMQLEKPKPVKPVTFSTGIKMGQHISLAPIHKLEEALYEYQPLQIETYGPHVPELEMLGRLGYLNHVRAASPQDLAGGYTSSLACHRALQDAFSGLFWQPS
assay info: ADP Glo kinase assay, CDK7/CyclinH/Mat1
Format: biochemical
applied conditions: compound at 1 μM, read-out: Residual enzymatic activity (%) at 1 μM, CDK7 H
attribute measured: remaining activity at 1 µM (%)

{"smiles string": "CS(=O)(=O)N1CCN(c2ccc(Nc3nccc(-c4cnc5ccc(-c6ccco6)cn45)n3)cn2)CC1", "attribute measured": "remaining activity at 1 µM", "units label": "%", "readout value": 80}
{"smiles string": "CN(C)c1ccc(Nc2nccc(-c3cnc4ccc(-c5ccccc5)cn34)n2)cn1", "attribute measured": "remaining activity at 1 µM", "units label": "%", "readout value": 64}
{"smiles string": "CN(C)c1ccc(Nc2nccc(-c3cnc4ccc(-c5ccc(F)nc5)cn34)n2)cn1", "attribute measured": "remaining activity at 1 µM", "units label": "%", "readout value": 71}
{"smiles string": "CN(C)c1ccc(Nc2nccc(-c3cnc4ccc(C5=CCNCC5)cn34)n2)cn1", "attribute measured": "remaining activity at 1 µM", "units label": "%", "readout value": 65}

Cited source: patent US20240158391A1
